Quick list: half-life at 1 µM per entry.
# assay_info: Rat liver microsomal metabolic stability
# Format: in vitro ADME
# assay_setup: rat liver microsomes, NADPH, 37°C
Give the value in h but do not write h after it.

Below, 8 compounds whose answers are already recorded.
>>> recorded_number("C[C@@H](Nc1nnc(N2CCN(C(C)(C)C)CC2)c2cc(=O)n(C3CC(F)(F)C3)cc12)c1cccc(C(F)F)c1F [Example 108]")
2.23
>>> recorded_number("CC(C)N1CCN(c2nnc(N[C@H](C)c3cccc(C(F)F)c3F)c3cn(C4CCC4)c(=O)cc23)CC1 [Example 113]")
2.25
>>> recorded_number("Cc1c(C#N)cccc1[C@@H](C)Nc1nnc(C)c2cnc(N3CCOCC3)cc12 [MRTX0902, reference compound]")
0.0483
>>> recorded_number("CNc1nnc(N[C@H](C)c2cccc(C#N)c2C)c2cn(C3CC3)c(=O)cc12 [Example 38]")
3.55
>>> recorded_number("Cc1c([C@@H](C)Nc2nnc(N3CCN(C(C)C)CC3)c3cc(=O)n(C4(C)CC4)cc23)cccc1C(F)(F)F [Example 91]")
2.52
>>> recorded_number("Cc1c([C@@H](C)Nc2nnc(N3CCC3)c3cc(=O)n(C4CC4)cc23)cccc1C(F)(F)F.O=CO [Example 50]")
2.18
>>> recorded_number("CNc1nnc(N[C@H](C)c2cccc(C(F)(F)F)c2C)c2cn(C3(C)CC3)c(=O)cc12 [Example 73]")
1.59
>>> recorded_number("CCN1CCN(c2nnc(N[C@H](C)c3cccc(C(F)F)c3F)c3cn(C4CCC4)c(=O)cc23)CC1 [Example 112]")
3.32

Recorded half-life at 1 µM for C[C@@H](Nc1nnc(N2CCN(CC3CC3)CC2)c2cc(=O)n(C3(C)CC3)cc12)c1cccc(C(F)F)c1F [Example 219] , please?
2.8

====

System: SOS1 (Homo sapiens) | Read-out: log10 of IC50
Sequence (Q07889 whole entry): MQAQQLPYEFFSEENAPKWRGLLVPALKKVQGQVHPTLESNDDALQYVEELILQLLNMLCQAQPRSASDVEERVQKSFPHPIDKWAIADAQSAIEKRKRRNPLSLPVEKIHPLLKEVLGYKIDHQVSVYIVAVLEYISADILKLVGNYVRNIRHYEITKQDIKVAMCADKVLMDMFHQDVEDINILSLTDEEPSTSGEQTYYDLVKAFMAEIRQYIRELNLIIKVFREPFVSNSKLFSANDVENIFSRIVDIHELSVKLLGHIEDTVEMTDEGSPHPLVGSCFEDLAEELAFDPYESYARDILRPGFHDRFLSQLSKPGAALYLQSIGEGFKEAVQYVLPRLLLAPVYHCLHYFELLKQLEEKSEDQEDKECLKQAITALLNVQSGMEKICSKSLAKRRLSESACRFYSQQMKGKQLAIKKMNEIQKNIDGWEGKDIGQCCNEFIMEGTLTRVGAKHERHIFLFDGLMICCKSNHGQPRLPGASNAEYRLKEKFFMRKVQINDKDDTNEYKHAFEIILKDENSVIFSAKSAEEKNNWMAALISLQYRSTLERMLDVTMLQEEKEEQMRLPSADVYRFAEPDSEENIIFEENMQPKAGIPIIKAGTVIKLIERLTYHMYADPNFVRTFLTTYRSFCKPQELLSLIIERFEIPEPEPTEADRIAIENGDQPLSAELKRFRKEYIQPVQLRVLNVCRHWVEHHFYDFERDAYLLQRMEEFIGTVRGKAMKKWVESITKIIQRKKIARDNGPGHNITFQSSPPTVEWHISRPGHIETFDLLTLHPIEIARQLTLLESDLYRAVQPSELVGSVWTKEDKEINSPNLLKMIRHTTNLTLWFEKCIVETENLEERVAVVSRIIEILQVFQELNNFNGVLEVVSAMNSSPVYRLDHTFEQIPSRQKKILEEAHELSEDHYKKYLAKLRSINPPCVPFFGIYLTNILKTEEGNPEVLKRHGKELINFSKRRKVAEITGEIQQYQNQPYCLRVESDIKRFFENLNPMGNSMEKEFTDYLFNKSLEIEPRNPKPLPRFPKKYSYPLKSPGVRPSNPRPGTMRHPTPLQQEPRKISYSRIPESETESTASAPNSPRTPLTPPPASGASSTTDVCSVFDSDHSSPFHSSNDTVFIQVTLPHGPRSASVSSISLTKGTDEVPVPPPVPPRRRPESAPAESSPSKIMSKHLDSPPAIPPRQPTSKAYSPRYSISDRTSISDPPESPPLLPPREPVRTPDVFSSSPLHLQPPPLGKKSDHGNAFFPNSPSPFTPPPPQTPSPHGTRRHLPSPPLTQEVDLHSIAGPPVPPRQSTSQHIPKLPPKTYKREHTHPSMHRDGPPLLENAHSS
Structures can show the parent of a compound that is named as a salt.
Friendly reminder: values = log10 of IC50, unit nM.

Below, 3 compounds whose answers are already recorded.
>>> recorded_number("C[C@@H](Nc1nnc(N2CCC2)c2cc(=O)n(C3(C)CC3)cc12)c1cccc(C(F)F)c1F [Example 16, formate]")
0.61
>>> recorded_number("C[C@@H](Nc1nnc(N2CCC3(CC3)C2)c2cc(=O)n(C3(C)CC3)cc12)c1cccc(C(F)F)c1F")
0.68
>>> recorded_number("C[C@@H](Nc1nnc(NN2CCN(C)CC2)c2cc(=O)n(C3(C)CC3)cc12)c1cccc(C(F)(F)F)c1 [Example 159, formate]")
0.81

Form field - read-out: log10 of IC50; system: SOS1 (Homo sapiens); submitted item: C[C@@H](Nc1nnc(N2C3CCC2COC3)c2cc(=O)n(C3(C)CC3)cc12)c1cccc(C(F)F)c1F
1.09

Queued: C[C@@H](Nc1nnc(N2CCC3(CCC3)CC2)c2cc(=O)n(C3(C)CC3)cc12)c1cccc(C(F)F)c1F
1.60

Queued: C[C@@H](Nc1nnc(N2CCN(C3CC3)CC2)c2cc(=O)n(C3(C)CC3)cc12)c1cccc(C(F)F)c1F
0.78

Queued: C[C@@H](Nc1nnc(N2CCC3(CCN(C)C3)C2)c2cc(=O)n(C3(C)CC3)cc12)c1cccc(C(F)F)c1F (some centres unmarked)
0.69

Queued: C[C@@H](Nc1nnc(N2CCC3(CCCC3)CC2)c2cc(=O)n(C3(C)CC3)cc12)c1cccc(C(F)F)c1F
1.93

Queued: C[C@@H](Nc1nnc(N2CCS(=O)(=O)CC2)c2cc(=O)n(C3CC3)cc12)c1cccc(C(F)F)c1F
1.10
